Measured values drawn from patent US20170342144A1 for this set.

Would you kindly list kd var/kd wt for each of these binders?
# Measured Target: T1, human TGFβ3 (human, UniProt P10600 301-412)
# T1 sequence: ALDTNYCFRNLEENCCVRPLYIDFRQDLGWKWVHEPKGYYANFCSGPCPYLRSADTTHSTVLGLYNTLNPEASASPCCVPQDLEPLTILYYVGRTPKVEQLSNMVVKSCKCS
# Measurement Protocol: Biacore off-rate vs wt GC1008, 50 nM
Could you keep your reply to the number by itself?

Return reported kd var/kd wt. Input binder: V55W (antibody, V domains shown, GC1008 IgG4 variant) VH: QVQLVQSGAEVKKPGSSVKVSCKASGYTFSSNVISWVRQAPGQGLEWMGGVIPIWDIANYAQRFKGRVTITADESTSTTYMELSSLRSEDTAVYYCASTLGLVLDAMDYWGQGTLVTVSS VL: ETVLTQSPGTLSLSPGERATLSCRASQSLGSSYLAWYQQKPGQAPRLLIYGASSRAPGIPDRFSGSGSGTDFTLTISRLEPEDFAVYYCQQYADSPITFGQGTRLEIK 2.1

Return reported kd var/kd wt. Input binder: I54A (antibody, V domains shown, GC1008 IgG4 variant) VH: QVQLVQSGAEVKKPGSSVKVSCKASGYTFSSNVISWVRQAPGQGLEWMGGVIPAVDIANYAQRFKGRVTITADESTSTTYMELSSLRSEDTAVYYCASTLGLVLDAMDYWGQGTLVTVSS VL: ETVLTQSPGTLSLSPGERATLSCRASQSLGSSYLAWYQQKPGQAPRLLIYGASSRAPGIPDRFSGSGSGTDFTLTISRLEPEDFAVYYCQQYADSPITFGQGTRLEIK 2

Return reported kd var/kd wt. Input binder: N59Y (antibody, V domains shown, GC1008 IgG4 variant) VH: QVQLVQSGAEVKKPGSSVKVSCKASGYTFSSNVISWVRQAPGQGLEWMGGVIPIVDIAYYAQRFKGRVTITADESTSTTYMELSSLRSEDTAVYYCASTLGLVLDAMDYWGQGTLVTVSS VL: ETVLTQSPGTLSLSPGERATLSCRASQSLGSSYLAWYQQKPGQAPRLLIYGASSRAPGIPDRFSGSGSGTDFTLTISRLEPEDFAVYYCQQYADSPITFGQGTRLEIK 1.5
